Value source: PubChem BioAssay (NCI)

Where a SMILES comes first, the peptide text is derived from it. [ ]: non-standard residue; d: D form. 2Nal = N[CH](Cc1ccc2ccccc2c1)C(=O)O
Quick record: GI50, U251 CNS.

Worked cases, answers included:
compound: CC(NC(=O)C(N)Cc1ccccc1)C(=O)NC(Cc1ccc(O)cc1)C(=O)NC(Cc1c[nH]c2ccccc12)C(=O)NC(CCCCN)C(=O)NC(C(=O)NC(C)C(=O)NC(Cc1ccc2ccccc2c1)C(N)=O)C(C)C (stereo unspecified) (H-FAYWKVA[2Nal]-NH2; configuration not given here)
GI50: 25.1 µM

compound: COCCOC(C)C(/C=N/NC(N)=S)=N/NC(N)=S (stereo unspecified)
GI50: > 100 µM

compound: NC(N)=NC(N)=NCCc1ccccc1
GI50: > 100 µM

compound: C=CCSc1n[nH]c(-c2cccs2)n1
GI50: > 100 µM

compound: N#Cc1cccc(Nc2nccc(-c3cnn4ncccc34)n2)c1
GI50: 0.00552 µM

Input: Please provide the recorded GI50 for O=[N+]([O-])c1ccc(N(CCO)CCO)c2c1no[n+]2[O-] , tested on U251 CNS.
Output: 0.655 µM

Input: What reported GI50 corresponds to O=[N+]([O-])c1ccc2nc(N/N=C/c3ccc(O)cc3)sc2c1 on U251 CNS?
Output: 4.56 µM

====

Test system: RXF 393 renal
assay.method.text: NCI tumour cell line growth inhibition, 48 h
Each entry below lists one item and its recorded TGI value.
Return type: number; implicit unit µM.

compound: CC1=COC2=C(C)C(=O)C(=O)c3c(C)ccc1c32
outcome.measure: TGI
measure.unit: µM
obs.value: 21.5
--
compound: COc1ccc(C2=C(OC(C)=O)c3cccn3-c3ccccc3S2)cc1
outcome.measure: TGI
measure.unit: µM
obs.value: 6.44
--
compound: O=[N+]([O-])c1ccc(N(CCO)CCO)c2c1no[n+]2[O-]
outcome.measure: TGI
measure.unit: µM
obs.value: 4.84
--
compound: O=C(O)/C(O)=C1/C=C(c2ccccc2)c2ccccc21
outcome.measure: TGI
measure.unit: µM
obs.value: 35.6
--
compound: COc1ccc(-c2nc3ccc(C)cc3o2)c(OC)c1
outcome.measure: TGI
measure.unit: µM
obs.value: 53.8

Input: // lookup TGI for CCOC(=O)Cn1nc2ccc(Nc3nc4ccccc4nc3C(=O)OCC)cc2n1
Output: 58.2

Input: Name the recorded TGI for Cc1oc2c(c1C(=O)c1ccccc1)C(=O)c1ccccc1C2=O .
Output: 8.2

Input: Please give the measured TGI for this compound: O=C1c2c(Br)sc(Br)c2[C@H]2NC(=S)O[C@@H]12
Output: 27.9

Input: # input compound: CS(=O)(=O)c1ccc(C(F)(F)F)cc1NC(=O)Nc1cnc(Oc2ccc(-c3cc(Cl)cnc3N)cc2)nc1 ; wanted: its TGI
Output: 4.61

Input: Which TGI is reported for this compound? C=C1C(=O)C=C2C=C3C(=O)C(C)(C)C[C@]3(O)C12C (stereo not given in full)
Output: 3.33

Input: Entry under review: C#C[C@]1(O)CC[C@H]2[C@@H]3CC=C4c5nc(Nc6ccc(OC)cc6OC)sc5CC[C@]4(C)[C@H]3CC[C@@]21C . Reported TGI?
Output: 0.608

Input: What does the data say about its TGI? Entry: Nc1ccc(-c2ccc(-c3nc4ccccc4[nH]3)cc2)cc1
Output: 82.9

Input: Can you share its TGI? I mean this compound: CCCCCCCCCCCCCCCCCCNc1ccn(C2OC(CO)C(OP(=O)(O)OCC3CCC(n4ccc(N)nc4=O)O3)C2O)c(=O)n1 (stereo not given)
Output: 45.1

Input: Query (compound): Cc1sc(N=Nc2c(O)[nH]c3ccccc23)nc1-c1ccccc1 ; field requested: TGI
Output: 34.9

Input: # input compound: COc1cc2c[n+](C)c3c4ccccc4ccc3c2cc1OC ; wanted: its TGI
Output: 32.1

Input: Data request, read-out TGI, for CC(=O)OC1CC(OC2C(O)CC(OC3C(O)CC(OC4CCC5(C)C(CCC6C5CC(O)C5(C)C(C7=CC(=O)OC7)CCC65O)C4)OC3C)OC2C)OC(C)C1O (stereo not given) (tested in a mixture with another compound)
Output: 0.0812

Input: Entry COC(=O)c1c2c(c(C)[n+]([O-])c1C)C(=O)C(NCc1ccc(F)c(Cl)c1)=CC2=O : reported TGI = ?
Output: 4.05

Input: What does the data say about its TGI? Entry: C/C=C(/C)C(=O)OC1C=C(CO)C(=O)C(OC(=O)/C(C)=C\C)C1C(C)C (stereo not given)
Output: 2.54
